read-out: CYP4A11 (gene 1579); experiment: LTEA_HepaRG_CYP4A11: Life Technologies and Expression Analysis (LTEA) Assay for CYP4A11 using HepaRG (AID 2283486); conditions: mRNA level, 48 h; actives raise or lower the signal
Activity calls are given as the source filed them. Rule for the calls: active = hit-call score of the fitted dose curve at least 0.9, where 1 is the maximum; inactive = score below 0.9.
Tick one outcome: T (active), F (inactive)

Task item: Please state the recorded outcome for this compound: CC(C)Nc1nc(Cl)nc(NC(C)C)n1
Reply: F

Task item: Recorded test outcome, item C=CCOC(=O)C(C)(C)OC(=O)c1cc(-n2c(=O)cc(C(F)(F)F)n(C)c2=O)ccc1Cl
Reply: F

Task item: Answer briefly: the call reported for COC(=O)N(C(=O)N1CO[C@@]2(C(=O)OC)Cc3cc(Cl)ccc3C2=N1)c1ccc(OC(F)(F)F)cc1 in this assay.
Reply: T

Task item: Any idea what this test logged for CCCCC(C#N)(Cn1cncn1)c1ccc(Cl)cc1 (stereo unspecified) ?
Reply: T

Task item: Which outcome was assigned to O=P(O)(O)CCCl in this test?
Reply: F

Task item: Returns: the outcome recorded for COc1ccc(-c2ccccc2)cc1NNC(=O)OC(C)C in this assay.
Reply: F

Task item: Would you mind telling me which call this test gave Cn1c(-c2ccccc2)cc(-c2ccccc2)[n+]1C ?
Reply: T

Task item: Name the outcome recorded for CCOP(=S)(OCC)Oc1nc(Cl)n(C(C)C)n1 in the assay.
Reply: T

Task item: Just curious, what result did N#CN=C1SCCN1Cc1ccc(Cl)nc1 get here?
Reply: F

Task item: I would be grateful if you could indicate the recorded call for O=C(Nc1ccccc1-c1ccc(Cl)cc1)c1cccnc1Cl .
Reply: F

Task item: Which outcome was assigned to COP(=S)(OC)SCn1nnc2ccccc2c1=O in this test?
Reply: F

Task item: // outcome(item) with item = Clc1cccc(C(Cl)(Cl)Cl)n1
Reply: F

Task item: Any idea what this test logged for COc1cc(OC)nc(NC(=O)NS(=O)(=O)c2ncccc2OCC(F)(F)F)n1 ?
Reply: F

Task item: // return assay outcome for COCc1cnc(C2=NC(C)(C(C)C)C(=O)N2)c(C(=O)O)c1 (stereo unspecified)
Reply: F

Task item: Could you please tell me the result logged for COP(=O)(OC)O/C(C)=C/C(=O)N(C)C in this assay?
Reply: F

Task item: In this assay, the call recorded for CC1(C)C(C=C(Cl)Cl)C1C(=O)OC(C#N)c1cccc(Oc2ccccc2)c1 (stereo unspecified) was what?
Reply: F

Task item: // param item: Cc1nc(N(C)C)nc(OC(=O)N(C)C)c1C ; yields the recorded call
Reply: F

Task item: Hello, I am checking results. What call was entered for CC1(C)CON(Cc2ccccc2Cl)C1=O ?
Reply: F

Task item: Fill in: this test's call for CCOc1nc(C(Cl)(Cl)Cl)ns1 is ___
Reply: T

Task item: Record request — test call for CC(C)N1C(=O)N(c2ccccc2)CSC1=NC(C)(C)C
Reply: T

Task item: Tell me the recorded outcome of this test for Cc1ccc(N=CN(C)C=Nc2ccc(C)cc2C)c(C)c1 .
Reply: F

Task item: Query: recorded result category for CCCC(=NOCC)C1=C(O)CC(CC(C)SCC)CC1=O (stereo unspecified) in this test
Reply: F

Task item: What classification did COP(=S)(OC)Oc1ccc([N+](=O)[O-])c(C)c1 end up with in this test?
Reply: F

Task item: State the result this test recorded for CCN(CC)C(=O)C(C)Oc1cccc2ccccc12 (stereo unspecified) .
Reply: T

Task item: Please share the test call associated with CN=C=S .
Reply: F

Task item: Entry N#Cc1c[nH]cc1-c1cccc2c1OC(F)(F)O2 : call = ?
Reply: T

----------
molecular target: Estrogen receptor (Homo sapiens) (UniProt P03372); test: NVS_NR_hER: NovaScreen (NVS) Nuclear Receptor Binding Assay for human Estrogen Receptor (ER) (AID 2283348)
Sequence (P03372 whole entry, looked up): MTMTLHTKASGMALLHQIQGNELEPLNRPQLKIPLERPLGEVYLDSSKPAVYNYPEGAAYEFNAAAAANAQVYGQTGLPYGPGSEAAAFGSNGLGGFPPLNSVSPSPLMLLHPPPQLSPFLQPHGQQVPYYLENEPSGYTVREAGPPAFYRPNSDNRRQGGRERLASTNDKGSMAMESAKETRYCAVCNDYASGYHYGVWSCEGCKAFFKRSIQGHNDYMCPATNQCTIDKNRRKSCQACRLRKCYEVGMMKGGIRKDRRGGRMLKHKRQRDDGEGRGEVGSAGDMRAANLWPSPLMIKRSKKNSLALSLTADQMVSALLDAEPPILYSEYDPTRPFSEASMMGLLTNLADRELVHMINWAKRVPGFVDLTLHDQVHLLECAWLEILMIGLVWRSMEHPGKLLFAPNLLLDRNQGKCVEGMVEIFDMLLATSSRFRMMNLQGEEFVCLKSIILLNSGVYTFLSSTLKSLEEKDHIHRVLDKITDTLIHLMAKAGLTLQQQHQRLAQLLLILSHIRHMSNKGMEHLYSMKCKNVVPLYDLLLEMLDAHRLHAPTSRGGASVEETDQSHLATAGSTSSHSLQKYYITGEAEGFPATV
Results filed as inconclusive are left out. Active and inactive are the calls of the source. The calls were made as follows: active = hit-call score of the fitted dose curve at least 0.9, where 1 is the maximum; inconclusive = response in the unintended direction; inactive = score below 0.9.
assay.endpoint: outcome

OC(c1ccc(Cl)cc1)(c1ccc(Cl)cc1)C(Cl)(Cl)Cl; inactive
CC1(C)C(C=C(Cl)Cl)C1C(=O)OC(C#N)c1cccc(Oc2ccccc2)c1 (configuration not stated); inactive
Cc1c(COC(=O)[C@@H]2[C@H](/C=C(\Cl)C(F)(F)F)C2(C)C)cccc1-c1ccccc1; inactive
CCSC(=O)N1CCCCCC1; inactive
CCN(CC)c1nc(C)cc(OP(=S)(OC)OC)n1; inactive

Task item: State, for Estrogen receptor (Homo sapiens) (UniProt P03372), measured outcome of the compound listed here: CC(C)=CC1C(C(=O)OCc2coc(Cc3ccccc3)c2)C1(C)C (configuration not stated)
Reply: inactive

Task item: Lab note: record outcome of CC(C)(C)C(=O)C(Oc1ccc(Cl)cc1)n1cncn1 (configuration not stated) tested on Estrogen receptor (Homo sapiens) (UniProt P03372).
Reply: inactive

----------
assay: NVS_IC_rCaDHPRCh_L: NovaScreen (NVS) Ion Channel Assay for rat Calcium Channel, Type L, Dihydropyridine Site (CaDHPRCh_L) (AID 2283320)
Inconclusive results are not listed. The source made the active and inactive calls. Rule for the calls: active = hit-call score of the fitted dose curve at least 0.9, where 1 is the maximum; inconclusive = response in the unintended direction; inactive = score below 0.9.
Hello, when you answer, please use one of the following outcomes: 1 (active), 0 (inactive)

Task item: Please let me know the test result on file for COC(=O)c1c(C(F)F)nc(C(F)(F)F)c(C2=NCCS2)c1CC(C)C .
Reply: 0

Task item: Status in this test for CC1(C)C(C=C(Cl)Cl)C1C(=O)OC(C#N)c1cccc(Oc2ccccc2)c1 (centres undefined) ?
Reply: 1

Task item: What outcome does the record of this test show for CCOC(=O)C(C)OC(=O)c1cc(Oc2ccc(C(F)(F)F)cc2Cl)ccc1[N+](=O)[O-] (centres undefined) ?
Reply: 1

Task item: I would be grateful if you could indicate the recorded call for CO/N=C(/C1=NOCCO1)c1ccccc1Oc1ncnc(Oc2ccccc2Cl)c1F .
Reply: 0

----------
read-out: xenobiotic metabolism (CYP1A2), CYP1A2 (gene 1544); assay: CLD_CYP1A2_48hr: CellzDirect (CLD) Gene Expression Assay for xenobiotic metabolism (CYP1A2) at 48 hours (AID 2283703)
Records with an inconclusive call do not appear. The source made the active and inactive calls. How the source made its calls: active means hit-call score of the fitted dose curve at least 0.9, where 1 is the maximum; inconclusive means response in the unintended direction; inactive means score below 0.9.
Answer with one of the outcomes given here: active, inactive

Task item: Which result was noted for this molecule in the test: CCN(CC)c1nc(C)cc(OP(=S)(OC)OC)n1
Reply: active

Task item: For this molecule, state the assay outcome: COC(=O)N(C(=O)N1CO[C@@]2(C(=O)OC)Cc3cc(Cl)ccc3C2=N1)c1ccc(OC(F)(F)F)cc1
Reply: active

Task item: // outcome(item) with item = O=C(O)c1c(Cl)ccc2cc(Cl)cnc12
Reply: inactive

Task item: Per the records of this test, what outcome belongs to CO/N=C(/C1=NOCCO1)c1ccccc1Oc1ncnc(Oc2ccccc2Cl)c1F ?
Reply: inactive

Task item: Per the records of this test, what outcome belongs to Cc1cc(C)nc(Nc2ccccc2)n1 ?
Reply: active

Task item: GET /call?item= CS(=O)(=O)c1cc(C(F)(F)F)ccc1C(=O)c1cnoc1C1CC1 returns the recorded outcome of this test.
Reply: active

Task item: Fill in: this test's call for Nc1cnn(-c2ccccc2)c(=O)c1Cl is ___
Reply: active

Task item: Hey, what did the test say about CCCN(CC)CC1COC2(CCC(C(C)(C)C)CC2)O1 (centres undefined) ?
Reply: active

Task item: Outcome logged for COP(=O)(OC)O/C(C)=C/C(=O)N(C)C in this assay:
Reply: inactive

----------
assay: Tanguay_ZF_120hpf_CFIN_legacy: (Legacy) Oregon State University Tanguay Lab 120 Hour Post-fertilization zebrafish Assay for Caudal Fin Malformation (AID 2283649)
Inconclusive results are not listed. The source made the active and inactive calls. How the source made its calls: active means hit-call score of the fitted dose curve at least 0.9, where 1 is the maximum; inconclusive means response in the unintended direction; inactive means score below 0.9.
Reply using exactly one outcome from label 1 for active, label 0 for inactive

Task item: // param item: CO/N=C(/C1=NOCCO1)c1ccccc1Oc1ncnc(Oc2ccccc2Cl)c1F ; yields the recorded call
Reply: label 1

Task item: How did this test come out for CCOC(=O)C(C)OC(=O)c1cc(Oc2ccc(C(F)(F)F)cc2Cl)ccc1[N+](=O)[O-] (centres undefined) ?
Reply: label 0

Task item: Record request — test call for CSC(=O)c1c(C(F)F)nc(C(F)(F)F)c(C(=O)SC)c1CC(C)C
Reply: label 0

Task item: Recorded call for CC(C)C1(C)N=C(c2ncccc2C(=O)O)NC1=O (centres undefined) ?
Reply: label 0

Task item: For Cc1c(COC(=O)[C@@H]2[C@H](/C=C(\Cl)C(F)(F)F)C2(C)C)cccc1-c1ccccc1 , what call appears in the results of this test?
Reply: label 0

Task item: What outcome does the record of this test show for C=CCOC(=O)C(C)(C)OC(=O)c1cc(-n2c(=O)cc(C(F)(F)F)n(C)c2=O)ccc1Cl ?
Reply: label 0

Task item: What outcome does the record of this test show for CNC(=O)Oc1cccc2ccccc12 ?
Reply: label 0

Task item: Check the results log: what was the call for Clc1cccc(C(Cl)(Cl)Cl)n1 ?
Reply: label 0

Task item: // param item: CC1(C)C(C=C(Cl)Cl)C1C(=O)OC(C#N)c1cccc(Oc2ccccc2)c1 (centres undefined) ; yields the recorded call
Reply: label 0

Task item: # fetch the recorded call for COP(=S)(OC)SCn1nnc2ccccc2c1=O here
Reply: label 0

Task item: Field: outcome | Entry: CCNC(=O)NC(=O)C(C#N)=NOC
Reply: label 0

Task item: What did the test return for COCC(=O)N(c1c(C)cccc1C)C(C)C(=O)OC (centres undefined) ?
Reply: label 0

Task item: Short answer needed: outcome of this test for CCOc1cc(C(C)(C)C)ccc1C1COC(c2c(F)cccc2F)=N1 (centres undefined) ?
Reply: label 0

Task item: Called result for CCCN(CC)CC1COC2(CCC(C(C)(C)C)CC2)O1 (centres undefined)
Reply: label 0

Task item: // outcome(item) with item = CCN(CC)C(=O)C(C)Oc1cccc2ccccc12 (centres undefined)
Reply: label 0

Task item: So what was the verdict on CS(=O)(=O)c1ccc(C(=O)C2C(=O)CCCC2=O)c([N+](=O)[O-])c1 in this test?
Reply: label 0

Task item: Which result was noted for this compound in the test: N#Cc1c[nH]cc1-c1cccc2c1OC(F)(F)O2
Reply: label 0

Task item: Field: outcome | Entry: Cc1cc(C)nc(Nc2ccccc2)n1
Reply: label 0

Task item: I'd appreciate the recorded outcome for CCN(CC)c1nc(C)cc(OP(=S)(OC)OC)n1 from this test.
Reply: label 0

Task item: Query: recorded result category for CN=C=S in this test
Reply: label 0

Task item: Field: outcome | Entry: Cc1nc(N(C)C)nc(OC(=O)N(C)C)c1C
Reply: label 0

Task item: Please state the recorded outcome for this compound: CS(=O)(=O)c1cc(C(F)(F)F)ccc1C(=O)c1cnoc1C1CC1
Reply: label 0

Task item: Recorded test call requested for COC(=O)c1c(C(F)F)nc(C(F)(F)F)c(C2=NCCS2)c1CC(C)C
Reply: label 0

Task item: Identify the outcome logged in this assay for the compound shown: CCCC(=NOCC)C1=C(O)CC(CC(C)SCC)CC1=O (centres undefined)
Reply: label 0
